- Assay Details: Metabolic clearance in rat hepatocyte assessed as clearance measured per 10^6 cells
- Type: ADME, cell-based
- Study Conditions: hepatocytes, read-out: CLH
Quantity Measured: hepatocyte CLint (µL/min/1e6 cells)
Express the result in µL/min/1e6 cells but write the number alone.

What the record says about O=C(c1cnn(Cc2ccccc2)c1)N1CCOc2ccccc2C1 : hepatocyte CLint is 87
